Values were extracted from ChEMBL document CHEMBL1201862.

Tested on: COLO 205
Experiment: NCI tumour cell line growth inhibition, 48 h
Activity calls are given as the source filed them. Cut-off read from the data, not from the text of the source: active = GI50 up to about 1.1 µM and inactive = higher.
Outcomes: true (1) (active), false (0) (inactive)

{"columns": ["compound", "classification"],
 "data": [
  ["Cc1ccc(/C=C/C(=O)c2cccc3ccccc23)cc1", "false (0)"],
  ["CC(C)(C)c1cc(OCc2nnc3sc(S)nn23)c(Cl)cc1OCc1nnc2sc(S)nn12", "false (0)"],
  ["CC(=O)N1N=C(c2ccc3ccccc3c2O)CC1C(=O)c1ccco1 (stereo not given)", "false (0)"],
  ["C=C1C(=O)CC2C1CC(=O)/C(C)=C/CCC(C)(O)C2O (stereo not given)", "false (0)"],
  ["CCC(C)(C)C1CCC2c3c([nH]c4ccccc34)C3C(=O)N(c4ccc(OC)cc4)C(=O)C3C2C1 (stereo not given)", "false (0)"],
  ["c1cc2c(c(-c3c4ccccc4nc4ccccc34)c1)CC1(CC2)OCCO1", "false (0)"],
  ["CC1(C)C(=O)/C=C\\C(=O)C(C)(C)C(=O)/C=C\\C(=O)C(C)(C)C2=CC=C(O2)C(C)(C)C(=O)/C=C\\C1=O", "false (0)"],
  ["CCOC(=O)C(NC(=O)CC)(Nc1ccc(S(=O)(=O)Nc2nc(C)cc(C)n2)cc1)C(F)(F)F (stereo not given)", "false (0)"],
  ["COc1ccc2c(c1)Oc1cc(O)ccc1[C@@H]2c1ccccc1C(=O)NC(C)c1ccccc1 (stereo not given in full)", "false (0)"],
  ["COc1ccc(CC2OC3(CCCCC3)CC3CCCCN32)cc1 (stereo not given)", "false (0)"],
  ["CC(O)C(O)C(O)C(/C=N\\Nc1ccccc1)=N/Nc1ccccc1 (stereo not given)", "false (0)"],
  ["CN(C)c1ccc(/C=c2/c3ccccc3n3c2cc(/C=C/c2ccccc2)[n+]3C)cc1", "true (1)"],
  ["CCOC(=O)/C(C)=C(/O)C(=O)OCC", "false (0)"],
  ["N#CC1=C(S)N(C2OC(CO)C(O)C(O)C2O)C(c2ccccc2)=CC1c1ccco1 (stereo not given)", "false (0)"],
  ["CC1(C)OCC(C2OC(OC(=O)c3ccc([N+](=O)[O-])cc3)C3OC(C)(C)OC23)O1 (stereo not given)", "false (0)"],
  ["Cn1c2ccccc2c(=S)c2cc(NC(=O)CCCCC(=O)Nc3ccc4c(c3)c(=S)c3ccccc3n4C)ccc21", "false (0)"],
  ["NC1=C(Cl)C(=O)c2ccccc2C1=O", "false (0)"],
  ["CC/C=C/C(/C=C/C[C@]1(CC)C[C@H](CC)[C@H](CC(=O)O)OO1)CC (stereo not given in full)", "false (0)"],
  ["Cc1cc(O)cc2c1O[C@@]1(C)CCC3[C@@]4(C)CC[C@H](O)C(C)(C)C4CC[C@@]3(C)[C@H]1C2 (stereo not given in full)", "false (0)"],
  ["C[n+]1c2ccccc2c(NC(CS)C(=O)O)c2ccccc21 (stereo not given)", "false (0)"]
]}

----------
Tested on: ACHN
Assay: NCI tumour cell line growth inhibition, 48 h
Calls of active or inactive are those of the source. Rule as the data show it: active = GI50 up to about 1.1 µM and inactive = higher.
Measured GI50, listed per entry for reference.

{"columns": ["molecule", "GI50"],
 "data": [
  ["CC(NS(=O)(=O)c1ccc([N+](=O)[O-])cc1)C(=O)O (stereo not given)", "> 100 µM (inactive)"],
  ["O=C(/C=C/c1ccc(O)c(O)c1)Oc1ccccc1", "8.45 µM (inactive)"],
  ["CNC(=O)O/N=C1\\N(C)CN(c2ccccc2)C12CCN(CCCC(=O)c1ccc(F)cc1)CC2", "83.8 µM (inactive)"],
  ["c1ccc(CN2C3C4N(Cc5ccccc5)C2C2N(Cc5ccccc5)C(C(N2Cc2ccccc2)N4Cc2ccccc2)N3Cc2ccccc2)cc1", "> 100 µM (inactive)"],
  ["Cc1ccc2c(c1)NC(=O)CC(c1ccccc1)=N2", "> 100 µM (inactive)"]
]}
